target: Jak2 (UniProt O60674); assay: phosphorylation enrichment, bacterial display (enrichment ratio); higher = better substrate or ligand; peptides without Tyr show the background;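 further: 11-residue human phosphosite peptides and single-mutation variants displayed on the E. coli surface, counted by deep sequencing, each peptide's frequency after selection divided by its frequency in the unselected input library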;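 further: frequency after pTyr selection over input frequency; kinase dosed for 20-30% of maximal phosphorylation in three min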
Sequence (O60674 whole entry, looked up): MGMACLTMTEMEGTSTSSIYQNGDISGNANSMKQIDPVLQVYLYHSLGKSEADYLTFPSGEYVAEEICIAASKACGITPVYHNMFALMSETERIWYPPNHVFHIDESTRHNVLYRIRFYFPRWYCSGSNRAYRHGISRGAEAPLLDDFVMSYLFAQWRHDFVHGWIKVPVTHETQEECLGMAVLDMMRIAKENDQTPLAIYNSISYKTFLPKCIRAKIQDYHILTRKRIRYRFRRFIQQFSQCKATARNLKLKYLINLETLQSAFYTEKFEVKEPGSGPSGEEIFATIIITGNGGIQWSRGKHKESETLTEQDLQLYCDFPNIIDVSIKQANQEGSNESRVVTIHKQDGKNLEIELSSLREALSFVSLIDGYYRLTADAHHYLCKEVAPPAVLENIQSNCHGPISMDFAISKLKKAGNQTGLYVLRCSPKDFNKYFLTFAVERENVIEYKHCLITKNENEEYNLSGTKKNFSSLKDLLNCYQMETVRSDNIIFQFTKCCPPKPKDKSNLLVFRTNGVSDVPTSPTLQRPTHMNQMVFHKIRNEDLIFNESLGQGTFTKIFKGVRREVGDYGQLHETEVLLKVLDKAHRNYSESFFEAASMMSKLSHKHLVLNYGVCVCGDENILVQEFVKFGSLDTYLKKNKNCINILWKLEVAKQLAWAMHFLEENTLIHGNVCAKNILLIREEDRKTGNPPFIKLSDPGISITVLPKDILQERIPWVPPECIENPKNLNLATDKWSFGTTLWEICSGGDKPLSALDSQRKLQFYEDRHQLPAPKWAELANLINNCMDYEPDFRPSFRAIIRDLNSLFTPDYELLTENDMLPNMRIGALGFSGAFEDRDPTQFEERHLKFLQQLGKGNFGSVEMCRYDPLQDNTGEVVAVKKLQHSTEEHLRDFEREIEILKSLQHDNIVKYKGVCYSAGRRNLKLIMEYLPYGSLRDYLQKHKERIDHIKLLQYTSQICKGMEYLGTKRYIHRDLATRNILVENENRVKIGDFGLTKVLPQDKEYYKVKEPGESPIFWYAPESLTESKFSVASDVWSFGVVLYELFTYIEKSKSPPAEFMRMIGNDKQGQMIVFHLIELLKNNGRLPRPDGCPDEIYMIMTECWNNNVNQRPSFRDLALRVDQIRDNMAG
Output: class label from phosphorylation enrichment. Mapping: lower band: < 0.7; central band: ≥ 0.7 and < 1; upper band: ≥ 1

DNEAIYDICRC [TUBA4A_Y210_R215C]; central band
SNFRAYATEPH [TNNI3_Y29_YF]; lower band
NTGVFYDLFGG [PTPN11_Y63_D61V_YF]; central band
IRGNMYFENSF [EGFR_Y112_YF]; central band
RKPDIYGRLAS [MCM4_Y459_E460G]; lower band
CTTIHYNYMSN [TP53_Y234_C238S]; central band
DFFDLYGGEKF [PTPN11_Y66_YF]; upper band
FQKNIYSEELR [LMNA_Y211]; upper band
HSKGIYYVQLE [MGAT4B_Y262_Q257H]; upper band
PGIRMYQVQYN [LRFN1_Y454]; upper band
FVSSFYHAFSG [ACTN4_Y265_YF]; upper band
HTEGEYSSLEH [IDH3B_Y171_Q166H]; central band
DTSKMYIPHTD [EXPH5_Y782]; lower band
DRLANYLEKVR [KRT40_Y103_S102N]; lower band
QNTVDYFDLFG [PTPN11_Y62_G60V_YF]; upper band
DPGVSYHTREE [PDHA1_Y301_R302H]; lower band
KLIETYFSKNF [PLP1_Y50_YF]; central band
TYEPNYGTVKQ [RAPGEF6_Y1447]; lower band
SSDPDYRAAVD [GLB1_Y154_L155R]; central band
VPVNGYQPVTA [ROR2_Y824_P828T]; lower band
SHNKYYMLVAH [MFSD8_Y134_R139H]; upper band
TQFWRYFAGNL [SLC25A5_Y112_L111R]; central band
IRKVLYANNVM [ACTA1_Y296_D294V]; lower band
YSMGCYEFSLG [HMGCL_Y198_I200F]; upper band
RGYRQYAYDGK [HLA-A_Y140_D140Y]; lower band
HGEAFYSEVKA [PAK5_Y182_P187A_YF]; central band
AEYGLYGAMVR [VSX2_Y222]; lower band
LDPDSYNKFEN [FOXC1_Y159_M161K]; upper band
SSSGGYGGGFG [KRT19_Y61_A60G_YF]; lower band
NTQRPYFKGGG [TYROBP_Y111_YF]; central band
NFDRVYIYHLR [MYOF_Y1137]; upper band
KELAPYDENWF [RPS19_Y48]; upper band
KINKMYSDRAM; lower band
GACGGYCSVLG [RAB18_Y202]; lower band
HNVPIYEGYGL [ACTA1_Y168_A172G]; central band
SVTCTSSPALN [TP53_Y126_Y126S]; upper band
